assay_summary: Quantitative highthroughput screen to assess conditional lethalithy of SEM cells grown in RPMI1640 with unreated serum (RPMI+s) (AID 1963883); also: nearly all actives have a fitted effect of over 35% in size;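 as to viability: 100% = DMSO wells and 0% = empty wells without cells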
recorded_conditions: SEM B-ALL cells, CellTiter-Glo viability, 48 h; series mostly up to 45.8 µM
Records with an inconclusive call do not appear. The source made the active and inactive calls. Calls follow the shape of the dose curve; as a rule, active = well fitted cell-killing curve with a large enough effect; inconclusive = small, poorly fitted or top-dose-only effect, or effect the other way; inactive = no such curve, though single readings can be large or run the other way.
Answer with one of the outcomes given here: class 1 for active, class 0 for inactive

# compound, label
data = [
    ("CN(C[C@@H]1COCCO1)S(=O)(=O)Nc1ccc2ccc3ncc(-c4cnn(C)c4)cc3c(=O)c2c1", "class 1"),
    ("CCNC(=O)c1noc(-c2cc(C(C)C)c(O)cc2O)c1-c1ccc(CN2CCOCC2)cc1", "class 1"),
    ("CC(=O)O[C@@]12CO[C@H]1C[C@H](O)[C@@]1(C)C(=O)[C@H](O)C3=C(C)[C@@H](OC(=O)C(O)[C@@H](NC(=O)OC(C)(C)C)c4ccccc4)C[C@@](O)([C@@H](OC(=O)c4ccccc4)[C@@H]21)C3(C)C (stereo not given in full)", "class 0"),
]

// query Tell me the assay call for O=C1CCCC(=O)C1C(=O)c1ccc(C(F)(F)F)cc1[N+](=O)[O-] please.
// result class 0

// query Test call, this compound: CC(C)C(C)C=CC(C)C1CCC2C3=CC=C4CC(O)CCC4(C)C3CCC21C (stereo not given)
// result class 0

// query Check the results log: what was the call for Cc1cc(C(C)(C)C)cc(C)c1CC1=NCCN1 ?
// result class 0

// query What call does the record list for CNC(=O)c1ccc(N2C(=S)N(c3ccc(C#N)c(C(F)(F)F)c3)C(=O)C2(C)C)cc1F ?
// result class 0

// query State the result this test recorded for COc1c(O)cc2c(c1O)[C@@H]1O[C@H](CO)[C@@H](O)[C@H](O)[C@H]1OC2=O .
// result class 1

// query Kindly provide the recorded test outcome for the following compound: C=CC(=O)Nc1cc2c(Nc3ccc(F)c(Cl)c3)ncnc2cc1C#CC(C)(C)N1CCN(C)CC1
// result class 1

// query What call does the record list for COc1ccc([C@@H]2CNC(=O)C2)cc1OC1CCCC1 ?
// result class 0

// query Please indicate how the test categorized CN(C)CCc1c[nH]c2ccc(Cn3cncn3)cc12 .
// result class 1

// query Given NS(=O)(=O)c1cccc2c1C(=O)c1cccc(O)c1C2=O , state the outcome it received in this test.
// result class 1

// query Identify the outcome logged in this assay for the compound shown: CC12CC3CC(C)(C1)CC(N)(C3)C2
// result class 0

// query # fetch the recorded call for CC(C)N1[N]C(=C2C=c3cc(O)ccc3=N2)c2c(N)ncnc21 here
// result class 1

----------
assay_summary: Quantitative highthroughput screen to assess conditional lethalithy of P12 Ichikawa cells grown in Human Plasma-Like Medium with dialyzed fetal bovine serum (HPLM+ds) (AID 1963879); also: nearly all actives have a fitted effect of over 35% in size
recorded_conditions: ATP luminescence, 48 h; viability; series mostly up to 45.8 µM
Results filed as inconclusive are left out. Active and inactive are the calls of the source. The call rests on the fitted dose curve; in most records, active means well fitted cell-killing curve with a large enough effect; inconclusive means small, poorly fitted or top-dose-only effect; inactive means flat fitted curve, though single readings scatter. Peptide text beside a SMILES is read from it. * marks the point of attachment. Cbz = O=C(OCc1ccccc1)*
Field 'call' accepts active, inactive

# compound, label
records = [
    ("CNC(=O)c1ccccc1Sc1ccc2c(C=Cc3ccccn3)n[nH]c2c1", "active"),
    ("CCOc1ccccc1OCCNC(C)Cc1ccc(OC)c(S(N)(=O)=O)c1 (centres undefined)", "inactive"),
    ("O=c1oc2c(O)c(O)cc3c(=O)oc4c(O)c(O)cc1c4c23", "inactive"),
    ("CCn1c(-c2nonc2N)nc2cnc(Oc3cccc(NC(=O)c4ccc(OCCN5CCOCC5)cc4)c3)cc21", "active"),
]

// query Give the logged outcome of this assay for the following compound: COc1ccc(C2CC(c3ccccc3)=NN2c2ccc(S(N)(=O)=O)cc2)cc1 (centres undefined)
// result active

// query Hey, what did the test say about CC(=Cc1ccccc1)C=C1SC(=S)N(CC(=O)O)C1=O ?
// result inactive

// query Recorded test outcome, item COc1cc(C)c(C=CC(C)=CC=CC(C)=CC(=O)O)c(C)c1C
// result inactive

// query Please let me know the test result on file for CC(C)C[C@@H](C=O)NC(=O)[C@H](CC(C)C)NC(=O)[C@H](CC(C)C)NC(=O)OCc1ccccc1 (Cbz-Leu-Leu-Leu-aldehyde) .
// result active

// query State the result this test recorded for Cc1nnc(C(C)C)n1C1C[C@H]2CC[C@@H](C1)N2CC[C@H](NC(=O)C1CCC(F)(F)CC1)c1ccccc1 (some centres undefined) .
// result active

// query Recorded test call requested for OC[C@H]1O[C@@H](Oc2ccc(O)cc2)[C@H](O)[C@@H](O)[C@H]1O
// result inactive

// query Test call for this compound, please: CC(=O)N1CCN(c2ccc(OCc3nn(C)c(C)c3-c3cccc4c(CCCOc5cccc6ccccc56)c(C(=O)O)n(Cc5cccnc5)c34)cc2)CC1
// result active

// query Which outcome was assigned to OCCC#Cc1nc(-c2ccc(F)cc2)c(-c2ccncc2)n1CCCc1ccccc1 in this test?
// result inactive

// query Identify the outcome logged in this assay for the compound shown: CCN(CCO)CCCOc1ccc2c(Nc3cc(CC(=O)Nc4cccc(F)c4)[nH]n3)ncnc2c1
// result active

// query Fill in: this test's call for Cc1ccnc(NS(=O)(=O)c2ccc(NC(=O)Nc3ccc(S(=O)(=O)Nc4nccc(C)n4)cc3)cc2)n1 is ___
// result active

// query Fill in: this test's call for NC(=O)c1ccc(-c2nc(-c3ccc4c(c3)OCCO4)c(-c3ccccn3)[nH]2)cc1 is ___
// result inactive

// query Record lookup: outcome of this test for Cn1cc(CNCC2CCN(c3ncc(C(=O)NO)cn3)CC2)c2ccccc21 ?
// result active

// query Which result was noted for this compound in the test: O=C1CCCC(=O)C1C(=O)c1ccc(C(F)(F)F)cc1[N+](=O)[O-]
// result inactive

// query # fetch the recorded call for O=P(O)(O)C(O)(Cc1cccnc1)P(=O)(O)O here
// result inactive

// query Dear all, I need the recorded test outcome for CC[C@@H]1C(=O)N(C)c2cnc(Nc3ccc(C(=O)NC4CCC(N5CCN(CC6CC6)CC5)CC4)cc3OC)nc2N1C(C)C (some centres undefined) , thank you.
// result active

// query Entry O=C(O)[C@H](CC(=O)N1C[C@@H]2CCCC[C@H]2C1)Cc1ccccc1 : call = ?
// result inactive
